# procedure_details: Rat pharmacokinetics, intravenous bolus and oral gavage
# Format: in vivo, male Sprague Dawley rats
# stated_conditions: plasma, IV 2 mg/kg, solution, male Sprague Dawley rats, mean±SD n=3
measurement_name: AUC(0-inf) (ng·h/mL)
The reply should be a number in ng·h/mL, with the unit left off.

// query Request the reported AUC(0-inf) associated with COc1cc2c(cc1N1CCOCC1)CC(Cc1cccc(OC(F)(F)F)c1)C2=O (stereo not shown)
// result 589

###

# measured_on: RORγ-LBD (RORγt) (Homo sapiens, UniProt P51449)
# Construct: the 6-His-(GST) RORγ-LBD was used which expressed and purified from baculovirus infected Sf-21 insect cells; made in house; host or cells: baculovirus-infected Sf-21 insect cells
# procedure_details: TR-FRET RORγt Binding Assay
# stated_conditions: RORγt Binding, 6-His(GST)RORγ-LBD, SRC1_2 peptide
pIC50: −log10 of the molar value.
measurement_name: pIC50

// query Entry COc1cc2c(cc1N1CCOCC1)CC(Cc1cccc(C(F)(F)F)c1)C2=O (stereo not shown) [compound 37] has what pIC50?
// result > 6.30

###

# measured_on: RORγt (Homo sapiens)
# Construct: host or cells: IL-17A Prom/LUCPorter HEK 293 cell line (IMGENEX, IML-301)
# Sequence (P51449 1-497 isoform P51449-2): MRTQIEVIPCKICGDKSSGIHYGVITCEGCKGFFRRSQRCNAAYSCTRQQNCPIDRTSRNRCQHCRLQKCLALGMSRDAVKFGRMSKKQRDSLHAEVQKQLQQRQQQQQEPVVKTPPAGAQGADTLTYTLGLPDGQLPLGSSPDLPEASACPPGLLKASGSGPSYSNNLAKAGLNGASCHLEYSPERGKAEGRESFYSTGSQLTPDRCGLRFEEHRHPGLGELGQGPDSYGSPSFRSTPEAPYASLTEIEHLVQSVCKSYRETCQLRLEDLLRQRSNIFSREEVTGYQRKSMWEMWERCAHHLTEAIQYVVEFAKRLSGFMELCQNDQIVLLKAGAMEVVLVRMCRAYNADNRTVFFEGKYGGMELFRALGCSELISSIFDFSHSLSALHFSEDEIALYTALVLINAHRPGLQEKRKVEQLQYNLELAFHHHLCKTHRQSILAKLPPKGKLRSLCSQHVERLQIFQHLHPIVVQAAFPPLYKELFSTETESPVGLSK
# procedure_details: RORγt-activated IL-17A Prom/LUCPorter HEK 293 cells luciferase reporter assay
# Type: cell-based
# stated_conditions: IL-17A Prom/LUCPorter HEK 293 cells transfected with RORγt, 16 h; read-out: RORγt Cell Specific
pIC50: −log10 of the molar value.
measurement_name: pIC50

Reference set, count: 8
// query Quick check: pIC50 of COc1cc2c(cc1N1CCN(C)CC1)CC(Cc1cccc(C(F)(F)F)c1Cl)C2=O (centres unmarked) ?
// result > 6.30

// query Could you tell me which pIC50 is on file for COc1cc2c(cc1N1CCC(C)CC1)CC(Cc1ccc(SC(F)(F)F)cc1)C2=O (centres unmarked) ?
// result < 6.00

// query Any idea what its pIC50 is? The molecule is COc1cc2c(cc1N1CCN(C)CC1)CC(Cc1cc(OC(F)(F)F)cc(C(O)(C(F)(F)F)C(F)(F)F)c1)C2=O (centres unmarked)
// result < 6.00

// query Request the reported pIC50 associated with COc1cc2c(cc1N1CCOCC1)CC(Cc1cccc(OC(F)(F)F)c1)C2=O (centres unmarked)
// result < 5.00

// query # get_value(readout='pIC50', item= COc1ccc2c(c1Cl)CC(Cc1ncccc1C(F)(F)F)C2=O (centres unmarked) )
// result < 6.00

// query Query: pIC50; subject: COc1cc2c(cc1N1CCNCC1)CC(Cc1ccc(SC(F)(F)F)cc1)C2=O (centres unmarked)
// result < 6.00

// query Please give the measured pIC50 for this molecule: COc1cc2c(c(N3CCN(C)CC3)c1OC)CC(Cc1ncccc1C(F)(F)F)C2=O (centres unmarked)
// result < 6.00

// query I have this molecule here, COc1cc2c(cc1N1CCN(C)C(C)C1)CC(CC1CCN(Cc3ccccc3)CC1)C2=O (centres unmarked) , and I need its recorded pIC50.
// result < 5.00

New cases:
// query Return reported pIC50; argument: COc1cc2c(cc1N1CCOCC1)CC(Cc1ccc(C(F)(F)F)nc1)C2=O (centres unmarked) [compound 71]
// result < 5.00

// query Entry COc1cc2c(cc1N1CCOCC1)CC(Cc1cc(Cl)cc(C(F)(F)F)c1)C2=O (centres unmarked) has what pIC50?
// result < 6.00

// query Quick one: pIC50 for COc1ccc2c(c1Cl)CC(Cc1ccc(SC(F)(F)F)cc1)C2=O (centres unmarked) ?
// result < 6.00

// query Need pIC50 of COc1cc2c(cc1N1CCOCC1)CC(Cc1ccc(Cl)cc1F)C2=O (centres unmarked) , thanks.
// result < 6.00

// query Would you kindly share the measured pIC50 for COc1cc2c(cc1N1CCOCC1)CC(Cc1cc(C(F)(F)F)cc(C(O)(C(F)(F)F)C(F)(F)F)c1)C2=O (centres unmarked) ?
// result > 6.30

// query Need pIC50, item COc1cc2c(cc1N1CCOCC1)CC(Cc1ncc(C(O)(C(F)(F)F)C(F)(F)F)cc1C(F)(F)F)C2=O (centres unmarked)
// result > 6.30
